Tested on: NCI-H460 lung
Item-by-item account of GI50

Recorded GI50, per entry:
`C=C1C(=O)O[C@H]2[C@H]1CC/C(COC(=O)CSCSCC(=O)OC/C1=C/CC[C@@]3(C)O[C@H]3[C@H]3OC(=O)C(=C)[C@@H]3CC1)=C\CC[C@@]1(C)O[C@@H]21` tested on NCI-H460 lung gave GI50: 2.1 µM

`CCOC(=O)Nc1ccc2c(c1)/C(=N\NC(N)=S)c1ccccc1-2` tested on NCI-H460 lung gave GI50: 4.33 µM

`CCOC(=O)/C(C=Nc1ccc(-c2nc3ccccc3[nH]2)cc1)=C(/C)O` tested on NCI-H460 lung gave GI50: 12.1 µM

`C[C@]12CC[C@@H]3c4ccc(OC(=O)N(CCCl)CCCl)cc4CC[C@H]3[C@@H]1CC[C@@H]2O` tested on NCI-H460 lung gave GI50: 2.75 µM

New cases:
`CCCCON(OC(=O)c1ccc2ccccc2c1)C(=O)c1ccccc1` tested on NCI-H460 lung gave GI50: > 100 µM

`CN(CCO)CC[C@H](CSc1ccccc1)Nc1ccc(S(=O)(=O)NC(=O)c2ccc(N3CCC([C@@H](O)c4ccccc4-c4ccc(Cl)cc4)CC3)cc2)cc1S(=O)(=O)C(F)(F)F` tested on NCI-H460 lung gave GI50: 4.74 µM

###

System: SR leukemia
Assay: NCI tumour cell line growth inhibition, 48 h
Item-by-item account of TGI

COC(=O)CC1C[C@H](C#N)N(C(=O)c2ccccc2)C[C@@H]1CC[N+](=O)[O-] (stereo partly drawn) tested on SR leukemia gave TGI: > 100 µM

###

System: UO-31 renal
Assay: NCI tumour cell line growth inhibition, 48 h
Recorded Metric: TGI

The recorded TGI for entry `Cc1ccc(Cc2n[nH]c(=O)n2Nc2ccccc2)cc1` equals > 100 µM

The recorded TGI for entry `Cn1c(=O)c2c(nc3n(CCCCl)c(=O)ccn23)n(C)c1=O` equals > 100 µM

The recorded TGI for entry CC(C)Oc1c(O)c2c3c(oc(=O)n3C=CC2c2ccccc2)c1OC(C)C (stereo unspecified) equals 37.2 µM

The recorded TGI for entry `O=C1CSC(=S)N1` equals > 100 µM

The recorded TGI for entry `N#CN=[N+]([O-])c1ccc(C(=O)O)cc1` equals 30.3 µM

New cases:
The recorded TGI for entry `NS(=O)(=O)c1ccc(-n2nc(-c3ccc(Cl)cc3)cc2-c2cc(O)ccc2O)cc1` equals > 100 µM

The recorded TGI for entry CCOC(=O)C12CCCC1(O)N(NC(=O)OC(C)(C)C)C(C)=C2C(=O)OC (stereo unspecified) equals > 100 µM

###

System: UACC-62 melanoma
Assay: NCI tumour cell line growth inhibition, 48 h
Item-by-item account of TGI

The recorded TGI for entry CC1CCC2(O)C3(C)CC4(O)OC2(C1O)C1(O)C3(O)C(OC(=O)c2ccc[nH]2)C(O)(C(C)C)C41C (stereo unspecified) equals > 100 µM

The recorded TGI for entry C=C[C@@]1(C)CC[C@@H]2[C@@]3(C1)O[C@H]3CC1[C@](C)(C(=O)OC)CCC[C@@]12C (stereo partly specified) equals > 100 µM

The recorded TGI for entry CCN1CCC(O)(c2ccc(Oc3ccccc3)cc2)C(C(=O)c2ccc(Oc3ccccc3)cc2)C1 (stereo unspecified) equals 25.9 µM

The recorded TGI for entry `N#CN=[N+]([O-])c1ccc(C(=O)O)cc1` equals 31.4 µM

The recorded TGI for entry `O=c1[nH]c(=O)c2cn[nH]c2[nH]1` equals > 100 µM

The recorded TGI for entry `COc1cc(C2=C(c3cc(OC)c4ccccc4c3OC)C(=O)c3ccccc3C2=O)c(OC)c2ccccc12` equals > 100 µM

The recorded TGI for entry COC(=O)C1CC2CCC1(O[Si](C(C)C)(C(C)C)C(C)C)C(O)C2 (stereo unspecified) equals > 100 µM

The recorded TGI for entry `O=c1ccn2n1Cc1ccccc1C2` equals > 100 µM

New cases:
The recorded TGI for entry CN1CC[C@]23c4c5ccc(O)c4O[C@H]2C(O)CC[C@@]3(O)[C@H]1C5 (stereo partly specified) equals > 100 µM

The recorded TGI for entry `ClCc1cccc2c(CCl)cccc12` equals 23.3 µM

The recorded TGI for entry `Cc1ccc2c(c1)C(=O)N(N(C)C)CC(=O)N2` equals > 100 µM

The recorded TGI for entry `C[C@H](NC(=O)[C@@H](C)N)[C@H](Oc1ccc2c(cnn2-c2ccc(F)cc2)c1)c1ccc2c(c1)OCCO2` equals 3.39 µM

The recorded TGI for entry `C[C@]12CC[C@@H]3c4ccc(O)cc4CC[C@H]3[C@@H]1CC[C@@H]2OP(=O)(O)O` equals > 100 µM

###

Test system: NCI-H226 lung
Assay: NCI tumour cell line growth inhibition, 48 h
Item-by-item account of TGI
Number in µM, nothing else.

The recorded TGI for entry CC1=C(c2ccccc2)C(c2ccccc2)=C(c2ccccc2)C2(c3ccccc3)C(=O)C(C)CN12 (stereo unspecified) equals 84.8

The recorded TGI for entry `CN(Cc1ccccc1)C(=NC#N)N(Cc1ccccc1)Cc1ccccc1` equals 67.5

Kindly consider the entry below.
The recorded TGI for entry O=C(COc1ccc(Cl)cc1)N1N=C(c2ccc(Cl)cc2)CC1(O)c1ccccc1 (stereo unspecified) equals 48.1

###

System: U251 CNS
Thanks in advance; please answer with one of these: active, inactive

Write down the call the test reported for this compound. Item: `ClCc1cccc2c(CCl)cccc12` inactive

Write down the call the test reported for this compound. Item: `CCCCON(OC(=O)c1ccc2ccccc2c1)C(=O)c1ccccc1` inactive

Write down the call the test reported for this compound. Item: CC1(C)C2CCC13C(=O)C1OC3(C2)C2C(=O)c3cc4ccccc4cc3C(=O)C12 (configuration not stated) inactive

Write down the call the test reported for this compound. Item: C[C@@]1(C(=O)O)CCC[C@]2(C)C1CC[C@@]13CC(=O)[C@@](CO)(CC[C@]12O)C3 (some centres not stated) inactive

Write down the call the test reported for this compound. Item: OC(Cc1ccncc1)C(Cl)(Cl)Cl (configuration not stated) inactive

Write down the call the test reported for this compound. Item: `N#Cc1ccc(OCc2nc(N)nc(N)c2-c2ccc(Cl)c(Cl)c2)cc1` inactive

New cases:
Write down the call the test reported for this compound. Item: `O=c1[nH]c(=O)c2cn[nH]c2[nH]1` inactive

Write down the call the test reported for this compound. Item: `C[C@H](NC(=O)[C@@H](C)N)[C@H](Oc1ccc2c(cnn2-c2ccc(F)cc2)c1)c1ccc2c(c1)OCCO2` inactive

###

Tested on: SF-268 CNS
Assay: NCI tumour cell line growth inhibition, 48 h
Recorded Metric: TGI (µM)
Number in µM, nothing else.

The recorded TGI for entry `CCCc1cc(=O)oc2c3c(c4c(c12)OC(C)(C)CC4)O[C@@H](C)[C@H](C)[C@H]3O` equals 30.3

New cases:
The recorded TGI for entry `CC1=NN(c2cccc(Cl)c2)C(=N/c2nc3ccccc3s2)/C1=C\c1ccc(Cl)cc1` equals 38.6

###

Tested on: HCT-15 colon
Experiment: NCI tumour cell line growth inhibition, 48 h
Item-by-item account of TGI

The recorded TGI for entry `CN(/N=C/c1cccc2cccnc12)c1ccc([N+](=O)[O-])cc1[N+](=O)[O-]` equals > 100 µM

The recorded TGI for entry `CC1(C)O[C@H]2[C@H](O)C[C@](O)(CO)C[C@H]2O1` equals > 100 µM

The recorded TGI for entry O=C(O)C1=C(O)C(C(=O)O)C23CCCCCCCCCCC12C(C(=O)O)C(O)=C3C(=O)O (stereo not given) equals > 100 µM

The recorded TGI for entry `CNC(=O)Nc1nc2ccc([N+](=O)[O-])cc2[nH]1` equals > 100 µM

The recorded TGI for entry `O=c1c2ccccc2nc(-c2cc3c(cc2Cl)Sc2nccn2S3(=O)=O)n1-c1ccccc1` equals 33 µM

The recorded TGI for entry CCN1C(=O)N(CC)C2C1NN=c1s/c(=C\c3cccc(F)c3)c(=O)n12 (stereo not given) equals > 100 µM

New cases:
The recorded TGI for entry `COC(=O)c1ccc(-c2nc3cc(Cl)c(Cl)cc3nc2C#N)cc1` equals > 100 µM

The recorded TGI for entry `Cc1c[n+](=O)c2ccccc2n1[O-]` equals > 100 µM

The recorded TGI for entry `C=C1C(=O)O[C@@H]2C[C@@H](C)[C@@H]3C=CC(=O)[C@@]3(C)[C@@H](O)[C@H]12` equals 9.54 µM

The recorded TGI for entry `COc1ncnc2c(-c3ccccc3)cn(COCc3ccccc3)c12` equals > 100 µM

###

Test system: ACHN renal
Test: NCI tumour cell line growth inhibition, 48 h
Item-by-item account of GI50

Recorded GI50, per entry:
The recorded GI50 for entry `CCN(Cc1ccc(Cl)cc1)c1ccc(CO)c(Cl)c1` equals 4.64 µM

The recorded GI50 for entry `CN1CCC2(CC1)ONC1=NCCN12` equals 23.7 µM

The recorded GI50 for entry `N#Cc1ccc(OCc2nc(N)nc(N)c2-c2ccc(Cl)c(Cl)c2)cc1` equals 0.8 µM

The recorded GI50 for entry C/C=C(\C)C(=O)NC1=CC[C@@]2(C)C(=CCC3C2CC[C@@]2(C)C3CC[C@@H]2C(C)N(C)C)C1=O (some centres undefined) equals 8.03 µM

The recorded GI50 for entry `COc1ccc(-c2nn(-c3cccc(Cl)c3)cc2-c2cc(-c3cccs3)[nH]c(=S)n2)cc1` equals 4.05 µM

The recorded GI50 for entry `C=C1C(=O)O[C@H]2[C@H]1CC/C(CNC(=O)/C=C/c1cc(OC)c(OC)c(OC)c1)=C\CC[C@@]1(C)O[C@@H]21` equals 1.27 µM

New cases:
The recorded GI50 for entry CN(O)C(=O)SCC(NC(=O)CCC(N)C(=O)O)C(=O)NCC(=O)O (centres undefined) equals > 2000 µM

The recorded GI50 for entry `N.N.N.N.N.NC(=O)c1nn[n-]n1.[Cl-].[Co+3]` equals > 100 µM

The recorded GI50 for entry `C=C1C(=O)O[C@H]2[C@H]1CC/C(COC(=O)CSCSCC(=O)OC/C1=C/CC[C@@]3(C)O[C@H]3[C@H]3OC(=O)C(=C)[C@@H]3CC1)=C\CC[C@@]1(C)O[C@@H]21` equals 1.33 µM
